Tested on: NL4-3ΔEnv-NanoLuc/MERS-CoV pseudovirus
Assay: microbe, parasite or virus in culture
Format: cell-based
Settings: Middle East respiratory syndrome-related coronavirus, MRC5, read-out: MERS-CoV IC50
For each entry below, report its IC50 value.
Return type: number; implicit unit µM.

Return IC50 measured with NL4-3ΔEnv-NanoLuc/MERS-CoV pseudovirus given this compound: Cc1cc(C)c2nc3s/c(=C\c4ccc(-c5ccc(Cl)c(C(=O)O)c5)o4)c(=O)n3c2c1 [NBCoV37] 0.229

Quick one: Cc1cc2nc3s/c(=C/c4ccc(-c5cccc(C(=O)O)c5)o4)c(=O)n3c2cc1C [NBCoV63] 0.102

Quick one: O=C(O)c1cc(-c2ccc(/C=c3\sc4nc(=O)c5c6c(sc5n4c3=O)CCCC6)o2)ccc1Cl [NBCoV36] 0.837

Quick one: Cc1ccc2nc3s/c(=C/c4coc(-c5ccc(Cl)c(C(=O)O)c5)c4)c(=O)n3c2c1 [NBCoV35] 0.715

---

Assay: in vitro
Settings: human
For each entry below, report its CC50 value.

Requested field: CC50. Item: COc1cc(/C=c2/sc3nc4ccccc4n3c2=O)cc(I)c1OCC(=O)O [NBCoV72] > 50 µM

Quick one: O=C(O)c1ccc(-c2ccc(/C=c3/sc4nc5ccccc5n4c3=O)o2)cc1 [NBCoV73] > 50 µM

Quick one: Cc1ccc(-c2ccc(/C=c3/sc4nc5ccccc5n4c3=O)o2)cc1Cl [NBCoV79] > 50 µM

Quick one: Cc1ccc2c(nc3s/c(=C\c4ccc(-c5ccccc5C(=O)O)o4)c(=O)n32)c1C [NBCoV68] > 50 µM

Quick one: O=C(O)c1cc(-c2ccc(/C=c3\sc4nc(=O)c5c6c(sc5n4c3=O)CCCC6)o2)ccc1Cl [NBCoV36] 43 µM

Quick one: O=C(O)c1ccc(-c2ccc(/C=c3/sc4nc5ccccc5n4c3=O)o2)cc1Cl [NBCoV75] > 50 µM

Quick one: Cc1ccc2nc3s/c(=C/c4coc(-c5ccc(Cl)c(C(=O)O)c5)c4)c(=O)n3c2c1 [NBCoV35] ~50 µM

Quick one: Cc1cc(C)c2nc3s/c(=C\c4ccc(-c5ccc(Cl)c(C(=O)O)c5)o4)c(=O)n3c2c1 [NBCoV37] 42.5 µM

Quick one: O=c1/c(=C/c2ccc(-c3ccccc3)o2)sc2nc3ccccc3n12 [NBCoV66] > 50 µM

Quick one: Cc1cc2nc3s/c(=C/c4ccc(-c5ccccc5C(=O)O)o4)c(=O)n3c2cc1C [NBCoV81] > 50 µM

Quick one: Cc1cc2nc3s/c(=C\c4ccc(-c5ccc(OC(F)(F)F)cc5)o4)c(=O)n3c2cc1C [NBCoV82] > 50 µM

Quick one: O=C(O)c1ccc(Cl)c(-c2ccc(/C=c3/sc4nc5ccccc5n4c3=O)o2)c1 [NBCoV74] > 50 µM

Quick one: Cc1cc2nc3s/c(=C\c4ccc(-c5ccc6c(c5)COC6=O)o4)c(=O)n3c2cc1C [NBCoV65] > 50 µM

---

Experiment: in vitro
Settings: human, Caco-2
READOUT: efflux ratio

Requested field: efflux ratio. Item: Cc1cc2nc3s/c(=C/c4ccc(-c5cccc(C(=O)O)c5)o4)c(=O)n3c2cc1C 42.3

---

System: NL4-3ΔEnv-NanoLuc/SARS-CoV-1 pseudovirus
Assay: microbe, parasite or virus in culture
Format: cell-based
Conditions: Severe acute respiratory syndrome coronavirus, 293T/ACE2, read-out: SARS-CoV-1 IC50
READOUT: IC50 (nM)
Return type: number; implicit unit nM.

Requested field: IC50. Item: O=C(O)c1cc(-c2ccc(/C=c3\sc4nc(=O)c5c6c(sc5n4c3=O)CCCC6)o2)ccc1Cl 660

Quick one: Cc1ccc2nc3s/c(=C/c4coc(-c5ccc(Cl)c(C(=O)O)c5)c4)c(=O)n3c2c1 380

Quick one: Cc1cc2nc3s/c(=C/c4ccc(-c5cccc(C(=O)O)c5)o4)c(=O)n3c2cc1C 110

Quick one: Cc1cc(C)c2nc3s/c(=C\c4ccc(-c5ccc(Cl)c(C(=O)O)c5)o4)c(=O)n3c2c1 340
